- Test system: SK-MEL-5 melanoma
- PROTOCOL_SUMMARY: NCI tumour cell line growth inhibition, 48 h; in the data active = GI50 below about 0.43 µM; inactive = the rest
Answer with one of the outcomes given here: TRUE (active), FALSE (inactive)

Inquiry: Write down the call the test reported for this compound. Item: Cc1[nH]c(C(=O)Nc2ccccc2OCc2cccc(C(=O)NC3CCCNC3)c2)c(Cl)c1Cl (centres undefined)
Reply text: FALSE

Inquiry: Write down the call the test reported for this compound. Item: COC1[C@@H]2C[C@H]3C(C)(C)O[C@@](C/C=C(/C)C(=O)O)(C2=O)[C@]32Oc3c(CC=C(C)C)c4c(c(O)c3C(=O)[C@H]12)C=CC(C)(C)O4 (some centres undefined)
Reply text: FALSE

Inquiry: Write down the call the test reported for this compound. Item: `Cc1ccc(-c2cc3nc(C(Cl)Cl)nc(-c4ccco4)n3n2)cc1`
Reply text: FALSE

Inquiry: Write down the call the test reported for this compound. Item: `Nc1nc(-c2cccc([N+](=O)[O-])c2)c(N=Nc2ccc([N+](=O)[O-])cc2Cl)s1`
Reply text: TRUE

====

- Test system: SN12C renal
- PROTOCOL_SUMMARY: NCI tumour cell line growth inhibition, 48 h
Would you mind telling me the reported TGI of each entry?
The answer is to be given in µM; state only the numeric part.

Inquiry: Give SN12C renal TGI for the following compound: `Nc1nc(-c2cccc([N+](=O)[O-])c2)c(N=Nc2ccc([N+](=O)[O-])cc2Cl)s1`
Reply text: 4.57

Inquiry: Give SN12C renal TGI for the following compound: COC1[C@@H]2C[C@H]3C(C)(C)O[C@@](C/C=C(/C)C(=O)O)(C2=O)[C@]32Oc3c(CC=C(C)C)c4c(c(O)c3C(=O)[C@H]12)C=CC(C)(C)O4 (some centres undefined)
Reply text: 29.7

Inquiry: Give SN12C renal TGI for the following compound: CCCn1cnc2c(c1=N)C(c1ccc(OC)cc1)c1sc3c(C)cccc3c1O2 (centres undefined)
Reply text: 15.5

Inquiry: Give SN12C renal TGI for the following compound: Cc1[nH]c(C(=O)Nc2ccccc2OCc2cccc(C(=O)NC3CCCNC3)c2)c(Cl)c1Cl (centres undefined)
Reply text: 3.72
